Biological target: rat metabotropic glutamate receptor 5 (mGluR5) (Rattus norvegicus, UniProt P31424)
Construct: expressed in transfected cells; host or cells: HEK 293
Sequence (P31424 21-1171 isoform P31424-2 limits assumed): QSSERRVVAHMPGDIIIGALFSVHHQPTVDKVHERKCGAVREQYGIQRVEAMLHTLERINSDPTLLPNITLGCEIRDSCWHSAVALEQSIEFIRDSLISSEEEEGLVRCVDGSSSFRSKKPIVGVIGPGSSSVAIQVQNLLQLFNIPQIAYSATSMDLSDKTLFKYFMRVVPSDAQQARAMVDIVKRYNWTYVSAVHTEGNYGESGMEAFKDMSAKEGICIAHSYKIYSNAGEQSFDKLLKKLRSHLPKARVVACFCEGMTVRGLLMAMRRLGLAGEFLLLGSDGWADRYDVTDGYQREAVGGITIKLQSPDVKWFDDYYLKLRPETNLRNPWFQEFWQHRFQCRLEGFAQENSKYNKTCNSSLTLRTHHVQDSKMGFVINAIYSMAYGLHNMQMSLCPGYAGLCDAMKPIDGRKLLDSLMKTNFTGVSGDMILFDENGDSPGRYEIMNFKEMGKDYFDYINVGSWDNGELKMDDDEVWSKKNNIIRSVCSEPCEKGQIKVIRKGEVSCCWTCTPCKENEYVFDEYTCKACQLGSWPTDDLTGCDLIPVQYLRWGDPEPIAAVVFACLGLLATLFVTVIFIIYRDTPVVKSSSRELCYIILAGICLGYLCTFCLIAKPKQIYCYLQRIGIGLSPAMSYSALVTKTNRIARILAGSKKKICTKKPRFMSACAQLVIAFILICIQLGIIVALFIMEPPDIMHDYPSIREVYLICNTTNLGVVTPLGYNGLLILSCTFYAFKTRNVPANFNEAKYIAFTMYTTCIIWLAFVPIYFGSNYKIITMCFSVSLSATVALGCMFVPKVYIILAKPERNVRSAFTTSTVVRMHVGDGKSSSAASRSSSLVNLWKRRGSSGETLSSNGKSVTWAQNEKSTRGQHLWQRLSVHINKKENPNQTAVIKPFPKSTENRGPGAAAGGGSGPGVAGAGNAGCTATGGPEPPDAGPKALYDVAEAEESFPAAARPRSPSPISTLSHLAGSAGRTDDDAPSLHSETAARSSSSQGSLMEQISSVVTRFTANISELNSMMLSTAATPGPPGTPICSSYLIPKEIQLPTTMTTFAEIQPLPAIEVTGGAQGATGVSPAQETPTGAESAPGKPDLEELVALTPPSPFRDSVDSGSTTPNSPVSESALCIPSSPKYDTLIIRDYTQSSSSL
Experiment: Calcium mobilization assay (FLIPR) for negative or positive allosteric activity, HEK 293 cells
Assay type: cell-based
Conditions: HEK293, negative allosteric modulation, inhibition of EC80 glutamate response; read-out: FLIPR maximum inhibition
readout-label: Emax

COc1cccc(C(=O)NC23CC4CC(CC(NC(=O)c5cncc(C)n5)(C4)C2)C3)n1 ... 70 to 99%
Cc1cncc(C(=O)NC23CC4CC(CC(NC(=O)c5cc(Br)ccn5)(C4)C2)C3)n1 ... 63 to 99%
CN1CCN(c2cccc(C(=O)NC34CC5CC(CC(NC(=O)c6cccc(F)c6)(C5)C3)C4)n2)CC1 ... 63 to 99%
O=C(NC12CC3CC(C1)CC(NC(=O)c1cccc(N4CCC(O)C4)n1)(C3)C2)c1cccc(F)c1 (stereo not shown) ... 63 to 99%
Cc1cncc(C(=O)NC23CC4CC(C2)CC(NC(=O)c2ccnc(C)n2)(C4)C3)n1 ... 63 to 99%
O=C(NC12CC3CC(C1)CC(NC(=O)c1ccccn1)(C3)C2)c1cccc(Cl)c1 ... 90 to 99%
COc1cccc(C(=O)NC23CC4CC(CC(NC(=O)c5cncc(C)n5)(C4)C2)C3)c1F ... 63 to 99%
CC(C)(C)OC(=O)N1CCc2cc(C(=O)NC34CC5CC(C3)CC(NC(=O)c3ccccn3)(C5)C4)ccc2C1 ... 63 to 99%
COCCNc1cccc(C(=O)NC23CC4CC(CC(NC(=O)c5cccc(F)c5)(C4)C2)C3)n1 ... 63 to 99%
Cc1cccc(C(=O)NC23CC4CC(CC(NC(=O)c5cc(C)on5)(C4)C2)C3)n1 ... 63 to 99%

Prompt: # input compound: CCn1ccc(C(=O)NC23CC4CC(CC(NC(=O)c5cccc(C)n5)(C4)C2)C3)n1 ; wanted: its Emax
Response: 63 to 99%

Prompt: # input compound: CN(CCO)c1cccc(C(=O)NC23CC4CC(CC(NC(=O)c5ccccn5)(C4)C2)C3)n1 ; wanted: its Emax
Response: 63 to 99%

Prompt: # input compound: Cc1ccc2nc(C(=O)NC34CC5CC(CC(NC(=O)c6ccccn6)(C5)C3)C4)cn2c1 ; wanted: its Emax
Response: 63 to 99%

Prompt: # input compound: O=C(NC12CC3CC(C1)CC(NC(=O)c1cnccn1)(C3)C2)c1ccnc(Br)c1 ; wanted: its Emax
Response: 63 to 99%

Prompt: # input compound: O=C(NC12CC3CC(C1)CC(NC(=O)c1ccc4[nH]ccc4n1)(C3)C2)c1ccccn1 ; wanted: its Emax
Response: 63 to 99%

Prompt: # input compound: Cc1cc(C(=O)NC23CC4CC(CC(NC(=O)c5ccccn5)(C4)C2)C3)nn1C ; wanted: its Emax
Response: 70 to 99%

====

Reported Emax values for the following molecules.
Molecular target: rat metabotropic glutamate receptor 5 (mGluR5) (Rattus norvegicus)
Construct: expressed in transfected cells; host or cells: HEK 293
Experiment: Calcium mobilization assay (FLIPR) for negative or positive allosteric activity, HEK 293 cells
Format: cell-based
Conditions: HEK293, negative allosteric modulation, inhibition of EC80 glutamate response; read-out: FLIPR maximum inhibition

Prompt: Param readout = Emax; param system = rat metabotropic glutamate receptor 5 (mGluR5) (Rattus norvegicus); param query = Cc1cccc(C(=O)NC23CC4CC(CC(NC(=O)c5cccc(N(C)C)c5)(C4)C2)C3)n1 ; response: value
Response: 70 to 99%

Prompt: Param readout = Emax; param system = rat metabotropic glutamate receptor 5 (mGluR5) (Rattus norvegicus); param query = Cc1cccc(C(=O)NC23CC4CC(C2)CC(NC(=O)c2nccc(C)n2)(C4)C3)n1 ; response: value
Response: 70 to 99%

Prompt: Param readout = Emax; param system = rat metabotropic glutamate receptor 5 (mGluR5) (Rattus norvegicus); param query = Cc1cccc(C(=O)NC23CC4CC(C2)CC(NC(=O)c2ccc5cnccc5n2)(C4)C3)n1 ; response: value
Response: 70 to 99%

Prompt: Param readout = Emax; param system = rat metabotropic glutamate receptor 5 (mGluR5) (Rattus norvegicus); param query = Cc1cncc(C(=O)NC23CC4CC(CC(NC(=O)c5cc(F)ccn5)(C4)C2)C3)n1 ; response: value
Response: 63 to 99%
